- System: Fer (mouse)
- Experiment notes: phosphorylation enrichment, bacterial display (enrichment ratio); higher = better substrate or ligand; peptides without Tyr show the background
Measure: phosphorylation enrichment
// no unit, no text: just the number

{"Seq string": "IEPVIDVVQRR [ANOS1_Y217_Y217D]", "Numeric value": 0.354}
{"Seq string": "SDTGQYQCLVF [AXL_Y115]", "Numeric value": 2.7}
{"Seq string": "LAVPLYKNGVK [CPS1_Y1069]", "Numeric value": 1.04}

Ask | Field request: phosphorylation enrichment | item: FDNPIYQKTTE [LDLR_Y828_V827I]
Reply | 1.59

Ask | Field request: phosphorylation enrichment | item: ETRWKYHFEVV [GCNT3_Y267]
Reply | 0.57

Ask | Field request: phosphorylation enrichment | item: LFHENYNAGTY [CFI_Y421_I416L]
Reply | 0.822

Ask | Field request: phosphorylation enrichment | item: PVPKTYDMLKA [PKP2_Y108]
Reply | 0.577

Ask | Field request: phosphorylation enrichment | item: DSNLIYSQIWS [FCRL3_Y662_P660L]
Reply | 15.7

Ask | Field request: phosphorylation enrichment | item: PAGSGYPAFLG [ATP6V1A_Y374_D371G_YF]
Reply | 0.512

Ask | Field request: phosphorylation enrichment | item: IENKLYGMSDS [RET_Y1062_P1067S]
Reply | 0.646

Ask | Field request: phosphorylation enrichment | item: RNVYYYSYLLK [PTEN_Y178_Y174N]
Reply | 1.59

Ask | Field request: phosphorylation enrichment | item: WGLRSYFETSK [MAGED2_Y448_YF]
Reply | 0.42

Ask | Field request: phosphorylation enrichment | item: EAEPYYCSLRD [NPHS1_Y1139_R1140C]
Reply | 1.85

----------
- System: c-Src
- Experiment notes: phosphorylation enrichment, bacterial display (enrichment ratio); higher = better substrate or ligand; peptides without Tyr show the background
Examples of sequences with documented phosphorylation enrichment follow.
// no unit, no text: just the number

Examples from the recorded data:
{"Seq string": "DPKFHYDNTAG [KDR_Y1214]", "phosphorylation enrichment": 0.547}
{"Seq string": "KMKGDYFRSLA [YWHAG_Y130_Y133S_YF]", "phosphorylation enrichment": 0.456}
{"Seq string": "AFGEVYEGQES [ALK_Y1131_V1135E]", "phosphorylation enrichment": 0.75}
{"Seq string": "SVVVPYEPPEV [TP53_Y220]", "phosphorylation enrichment": 0.459}
{"Seq string": "TYGVAYRAKDK [CDK11B_Y453_V452A]", "phosphorylation enrichment": 0.829}
{"Seq string": "ADDSFYTARSA [ZAP70_Y493_YF]", "phosphorylation enrichment": 0.707}
{"Seq string": "PANTVYSTVEI [SLAMF7_Y304]", "phosphorylation enrichment": 7.87}
{"Seq string": "RLSELYLRRNR [CFAP410_Y68]", "phosphorylation enrichment": 0.931}

Ask | Field request: phosphorylation enrichment | item: KKHIPYSEHKS [CSNK1G2_Y206_R207S]
Reply | 0.781

----------
- Tested on: SHP2-C SH2
- Experiment notes: SH2 binding enrichment of the phosphorylated peptide, bacterial display (enrichment ratio); higher = better substrate or ligand; peptides without Tyr show the background
Class membership depends on SH2 binding enrichment alone; the intervals are low range = under 0.6, mid range = from 0.6 up to 0.8, high range = 0.8 and over

Here's what some known entries look like.
{"Seq string": "TAPFNYSFIFK [RAB14_Y8_YF]", "Tested on": "SHP2-C SH2", "Qualitative label": "mid range"}
{"Seq string": "AIYWRYSKFFD [SH3PXD2B_Y45_R43W]", "Tested on": "SHP2-C SH2", "Qualitative label": "mid range"}
{"Seq string": "MTYMFYRENLR [NLRP14_Y443_V441M]", "Tested on": "SHP2-C SH2", "Qualitative label": "mid range"}
{"Seq string": "SETDDYAEIID [PTK2_Y397]", "Tested on": "SHP2-C SH2", "Qualitative label": "mid range"}
{"Seq string": "LVQAEYWHDPI [PPT1_Y185]", "Tested on": "SHP2-C SH2", "Qualitative label": "mid range"}
{"Seq string": "AEMKRYAESSS [RAI14_Y869]", "Tested on": "SHP2-C SH2", "Qualitative label": "high range"}

Ask | The entry to classify is NKPTVYGVSPN [ABL1_Y226] ; which class holds it?
Reply | low range

Ask | The entry to classify is LDVGEYCVPRG [BEX1_Y43_A40V] ; which class holds it?
Reply | mid range

Ask | The entry to classify is GQAPGYSYTAA [CYCS_Y47] ; which class holds it?
Reply | mid range

Ask | The entry to classify is SVVVPSEPPEV [TP53_Y220_Y220S] ; which class holds it?
Reply | high range

Ask | The entry to classify is TFWKKYRTFWK [CCDC70_Y125] ; which class holds it?
Reply | high range

----------
- Tested on: SHP2-C SH2;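 also: peptide library displayed on the E. coli surface as eCPX fusions, selected cells deep-sequenced, score is each peptide's frequency after selection divided by its frequency in the input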
- Experiment notes: SH2 binding enrichment of the phosphorylated peptide, bacterial display (enrichment ratio); higher = better substrate or ligand; peptides without Tyr show the background
Examples of sequences with documented SH2 binding enrichment follow.
// no unit, no text: just the number

Examples from the recorded data:
{"Seq string": "LFHENYNAGTY [CFI_Y421_I416L]", "SH2 binding enrichment": 0.818}
{"Seq string": "FPPTHYIRRMP [SLC4A11_Y820_V824M_YF]", "SH2 binding enrichment": 0.821}
{"Seq string": "RRNTPYSQTMK [TET2_Y819_S817T]", "SH2 binding enrichment": 1.12}
{"Seq string": "LWQTIYNLEAE [TNNT2_Y251_S249T]", "SH2 binding enrichment": 0.773}
{"Seq string": "TNQVIYLNPPI [DYNC1H1_Y970]", "SH2 binding enrichment": 0.99}

Ask | Field request: SH2 binding enrichment | item: SECCKYKIDNP [OSMR_Y689]
Reply | 0.393

Ask | Field request: SH2 binding enrichment | item: PFGQWYESHFA [RPS8_Y113_R110G_YF]
Reply | 1.12

Ask | Field request: SH2 binding enrichment | item: MNKNAYHNVTT [ST3GAL6_Y306_A311T]
Reply | 0.706

Ask | Field request: SH2 binding enrichment | item: SIKGKYVTALY [KCNH2_Y611_D609G]
Reply | 0.776

Ask | Field request: SH2 binding enrichment | item: LSDGPYSSPYE [EPOR_Y485_N487S]
Reply | 0.762

Ask | Field request: SH2 binding enrichment | item: KKYPDYIQIAR [SGMS2_Y59_M64R]
Reply | 0.808

----------
- Tested on: FGFR3 (UniProt P22607)
- Sequence (P22607 whole entry, looked up): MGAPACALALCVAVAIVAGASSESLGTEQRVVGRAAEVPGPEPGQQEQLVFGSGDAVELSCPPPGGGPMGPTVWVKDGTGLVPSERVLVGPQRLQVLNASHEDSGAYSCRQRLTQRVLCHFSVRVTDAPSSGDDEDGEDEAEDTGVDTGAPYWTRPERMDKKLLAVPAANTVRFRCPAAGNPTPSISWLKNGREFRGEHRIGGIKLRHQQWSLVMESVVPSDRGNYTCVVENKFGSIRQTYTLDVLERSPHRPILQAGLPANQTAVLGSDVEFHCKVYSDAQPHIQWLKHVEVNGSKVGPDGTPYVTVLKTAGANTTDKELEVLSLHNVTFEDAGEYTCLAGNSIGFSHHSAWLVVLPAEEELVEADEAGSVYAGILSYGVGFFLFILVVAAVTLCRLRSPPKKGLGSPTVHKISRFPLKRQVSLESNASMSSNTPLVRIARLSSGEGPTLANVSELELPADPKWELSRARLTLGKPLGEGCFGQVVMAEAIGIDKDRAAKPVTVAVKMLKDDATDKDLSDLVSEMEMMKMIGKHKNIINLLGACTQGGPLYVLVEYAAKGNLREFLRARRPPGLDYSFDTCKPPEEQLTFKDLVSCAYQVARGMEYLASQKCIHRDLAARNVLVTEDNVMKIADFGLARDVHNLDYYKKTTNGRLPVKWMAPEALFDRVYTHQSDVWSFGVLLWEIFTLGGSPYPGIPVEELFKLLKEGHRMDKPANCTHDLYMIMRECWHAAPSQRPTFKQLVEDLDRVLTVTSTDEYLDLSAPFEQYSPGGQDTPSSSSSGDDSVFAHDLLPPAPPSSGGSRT
- Experiment notes: phosphorylation enrichment, bacterial display (enrichment ratio); higher = better substrate or ligand; peptides without Tyr show the background
Measure: phosphorylation enrichment
// no unit, no text: just the number

Examples from the recorded data:
{"Seq string": "TIAIRYSHSRR [ACOXL_Y260]", "phosphorylation enrichment": 0.599}
{"Seq string": "GTTIHYNFMCN [TP53_Y234_C229G_YF]", "phosphorylation enrichment": 0.822}
{"Seq string": "TLQWMYGCDVG [HLA-B_Y123_S121W]", "phosphorylation enrichment": 0.814}

Ask | Field request: phosphorylation enrichment | item: FVSIVYNDFGE [TSC2_Y1650_S1653F]
Reply | 0.801

Ask | Field request: phosphorylation enrichment | item: EAEPFYRSLRD [NPHS1_Y1139_YF]
Reply | 0.707

Ask | Field request: phosphorylation enrichment | item: LSTPEYGPKLK [TBC1D14_Y46_A43T]
Reply | 0.506

----------
- System: c-Abl (mouse)
- Experiment notes: phosphorylation enrichment, bacterial display (enrichment ratio); higher = better substrate or ligand; peptides without Tyr show the background
Label T when phosphorylation enrichment is at or above 0.8; anything below gets F.

Here's what some known entries look like.
{"Seq string": "TNYRLYLRSLE [MTM1_Y71]", "Qualitative label": "T"}
{"Seq string": "PSDLLYIPDIQ [ITGA2B_Y845_L847P]", "Qualitative label": "T"}
{"Seq string": "CTSIHYNYMCN [TP53_Y234_T231S]", "Qualitative label": "F"}

Ask | Identify whether the reported phosphorylation enrichment of the following sequence is 0.8 or greater: GIADDYDKKKL [EIF1_Y54]
Reply | F

Ask | Identify whether the reported phosphorylation enrichment of the following sequence is 0.8 or greater: YRVAGYKTQGG [TIA1_Y383_E384K]
Reply | T

Ask | Identify whether the reported phosphorylation enrichment of the following sequence is 0.8 or greater: FQEKGYNKELR [CHRND_Y38]
Reply | F

Ask | Identify whether the reported phosphorylation enrichment of the following sequence is 0.8 or greater: QISRDYGVLLE [PRDX3_Y172]
Reply | F

Ask | Identify whether the reported phosphorylation enrichment of the following sequence is 0.8 or greater: GLCSYYETSKM [MAGED2_Y449_R446C]
Reply | T

Ask | Identify whether the reported phosphorylation enrichment of the following sequence is 0.8 or greater: SHNKFYMLVAH [MFSD8_Y134_R139H_YF]
Reply | T

Ask | Identify whether the reported phosphorylation enrichment of the following sequence is 0.8 or greater: CTTIHSNFMCN [TP53_Y234_Y234S_YF]
Reply | F

Ask | Identify whether the reported phosphorylation enrichment of the following sequence is 0.8 or greater: PPVVNYEQDAR [FER_Y402_E404Q]
Reply | F

Ask | Identify whether the reported phosphorylation enrichment of the following sequence is 0.8 or greater: KKFVPYYDLFM [IPO5_Y530_E525K]
Reply | F

// data source = the supplement of paper PMC10065799
